- MEASUREMENT_NOTES: AUC (infinity) in mouse at 3 mg/kg, ip
- Assay type: ADME, organism-based
- Set-up: time infinity, dose 3 mg/kg, route intraperitoneal
- MEASUREMENT_CONTEXT: plasma
VALUE_TYPE: AUC(0-inf) (µg·h/mL)
Numbers only, in µg·h/mL.

According to the records, this compound CN(Cc1ccccc1)c1ccc2cc(C(=O)O)c(=O)oc2c1 displays AUC(0-inf) of 0.935

====

- ASSAYED_TARGET: Monocarboxylate transporter 4 (Homo sapiens, UniProt O15427)
- Sequence (O15427 whole entry): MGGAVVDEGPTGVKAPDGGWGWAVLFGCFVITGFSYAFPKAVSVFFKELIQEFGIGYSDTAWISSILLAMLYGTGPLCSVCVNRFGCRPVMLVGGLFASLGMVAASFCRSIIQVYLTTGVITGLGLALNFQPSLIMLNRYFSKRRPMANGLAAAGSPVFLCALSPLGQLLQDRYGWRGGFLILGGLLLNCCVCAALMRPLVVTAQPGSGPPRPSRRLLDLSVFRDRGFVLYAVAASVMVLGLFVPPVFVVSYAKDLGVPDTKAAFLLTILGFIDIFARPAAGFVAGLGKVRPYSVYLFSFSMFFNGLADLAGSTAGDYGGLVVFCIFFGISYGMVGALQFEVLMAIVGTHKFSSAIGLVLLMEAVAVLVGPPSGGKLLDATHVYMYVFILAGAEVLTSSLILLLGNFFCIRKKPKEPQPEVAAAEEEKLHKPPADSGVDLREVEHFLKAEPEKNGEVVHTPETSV
- MEASUREMENT_CONTEXT: siha
- Description: Inhibition of MCT4-mediated [14C]-lactate uptake in human SiHa cells in lactate-containing medium assessed as remaining lactate concentration in culture medium after 12 mins by liquid scintillation counting
VALUE_TYPE: IC50 (µM)
Numbers only, in µM.

Hello, I would appreciate it if you could give IC50 for each entry below.
1. CN(Cc1ccccc1)c1ccc2cc(C(=O)O)c(=O)oc2c1
2. N#C/C(=C\c1ccc(O)cc1)C(=O)O [alpha-CYANO-4-HYDROXYCINNAMIC ACID]

a:
0.01
10.7

====

- MEASUREMENT_NOTES: Half life in mouse at 3 mg/kg, ip
- Type: ADME, organism-based
- Parameters: dose 3 mg/kg, route intraperitoneal
- MEASUREMENT_CONTEXT: in vivo
VALUE_TYPE: half-life
Value and unit, in that order.

The recorded half-life for entry CN(Cc1ccccc1)c1ccc2cc(C(=O)O)c(=O)oc2c1 equals 4.5 h

====

- ASSAYED_TARGET: Monocarboxylate transporter 4 (Homo sapiens, UniProt O15427)
- MEASUREMENT_NOTES: Inhibition of MCT4-mediated [14C]-lactate uptake in human SiHa cells in lactate-containing medium assessed as remaining lactate concentration in culture medium after 24 hrs by liquid scintillation counting
- Type: cell-based
For each of the compounds below, state its pIC50.
Give bare numbers, as −log10 of the molar value.

>>> experimental_value("CN(Cc1ccccc1)c1ccc2cc(C(=O)O)c(=O)oc2c1")
7.23
>>> experimental_value("O=C(O)c1cc2ccc(OCc3ccccc3)cc2oc1=O")
5.72

Alright, here's another compound for you.
compound N#C/C(=C\c1ccc(O)cc1)C(=O)O [alpha-CYANO-4-HYDROXYCINNAMIC ACID] , pIC50 observed: 4.36

====

- MEASUREMENT_NOTES: Tmax in mouse at 3 mg/kg, ip
- Assay type: ADME, organism-based
- Parameters: dose 3 mg/kg, route intraperitoneal
- MEASUREMENT_CONTEXT: in vivo
VALUE_TYPE: Tmax (min)
Answers are plain numbers, in min.

Reported Tmax for CN(Cc1ccccc1)c1ccc2cc(C(=O)O)c(=O)oc2c1 was 10

====

- ASSAYED_TARGET: UniProt O15427
- MEASUREMENT_NOTES: Inhibition of MCT4-mediated [14C]-lactate uptake in human SiHa cells in lactate-containing medium assessed as remaining lactate concentration in culture medium after 24 hrs by liquid scintillation counting
- Type: cell-based
I'd appreciate it if you could supply pIC50 values for the items below.
Answers are plain numbers, as −log10 of the molar value.

>>> experimental_value("O=C(O)c1cc2ccc(N3CCOCC3)cc2oc1=O")
5.10
>>> experimental_value("COc1ccc2cc(C(=O)O)c(=O)oc2c1")
5.64

// each molecule listed below needs its pIC50
1. O=C(O)c1cc2ccc(OCCc3ccccc3)cc2oc1=O
2. O=C(O)c1cc2ccc(OCc3ccc(F)cc3)cc2oc1=O
3. CN(C)c1ccc2cc(C(=O)O)c(=O)oc2c1
4. O=C(O)c1cc2cc3c4c(c2oc1=O)CCCN4CCC3

a:
1. 5.62
2. 5.90
3. 5.85
4. 6.14

====

- MEASUREMENT_NOTES: Metabolic stability in human plasma assessed as compound remaining after 1 hr
- Assay type: ADME, cell-free
- MEASUREMENT_CONTEXT: read-out: Stability
VALUE_TYPE: remaining at 1 h (%)
Answers are plain numbers, in %.

Looking up CN(Cc1ccccc1)c1ccc2cc(C(=O)O)c(=O)oc2c1 , I see its remaining at 1 h listed as 44

====

- MEASUREMENT_NOTES: Half life in mouse liver microsomes
- Format: ADME, Microsome
VALUE_TYPE: half-life

Note to self: half-life recorded for CN(Cc1ccccc1)c1ccc2cc(C(=O)O)c(=O)oc2c1 was > 1 h

====

- MEASUREMENT_NOTES: Half life in human liver microsomes
- Format: ADME, Microsome
VALUE_TYPE: half-life

The reported half-life of the compound CN(Cc1ccccc1)c1ccc2cc(C(=O)O)c(=O)oc2c1 was > 1 h

====

- MEASUREMENT_NOTES: Chemical stability of the compound in simulated intestinal fluid assessed as compound remaining after 4 hrs
- Assay type: physicochemical
- MEASUREMENT_CONTEXT: read-out: Stability
VALUE_TYPE: remaining at 4 h
Could you write the number and then its unit?

Input CN(Cc1ccccc1)c1ccc2cc(C(=O)O)c(=O)oc2c1 . Output remaining at 4 h: 91%

====

- MEASUREMENT_NOTES: Chemical stability of the compound in simulated gastric fluid assessed as compound remaining after 1 hr
- Assay type: physicochemical
- MEASUREMENT_CONTEXT: read-out: Stability
VALUE_TYPE: remaining at 1 h

Entry under test: CN(Cc1ccccc1)c1ccc2cc(C(=O)O)c(=O)oc2c1 . Its remaining at 1 h was 105%

====

- ASSAYED_TARGET: Monocarboxylate transporter 4 (Homo sapiens)
- MEASUREMENT_NOTES: Inhibition of MCT4-mediated [14C]-lactate uptake in human SiHa cells in lactate-containing medium assessed as remaining lactate concentration in culture medium after 24 hrs by liquid scintillation counting
- Type: cell-based
VALUE_TYPE: IC50

Take each entry in turn and give its IC50.
1. Cc1c(C(=O)O)c(=O)oc2cc(O)ccc12
2. O=C(O)c1cc2ccc(N3CCCC3)cc2oc1=O
3. O=C(O)c1cc2ccc(OCc3ccccc3)cc2n(Cc2ccccc2)c1=O

a:
> 30 µM
> 30 µM
> 30 µM

====

Record form. Attribute: pIC50. Fill in for each entry.
- ASSAYED_TARGET: Monocarboxylate transporter 4 (Homo sapiens)
- MEASUREMENT_NOTES: Inhibition of MCT4-mediated [14C]-lactate uptake in human SiHa cells in lactate-containing medium assessed as remaining lactate concentration in culture medium after 24 hrs by liquid scintillation counting
- Format: cell-based
pIC50: −log10 of the molar value.

>>> experimental_value("Cc1c(C(=O)O)c(=O)oc2cc(OCc3ccccc3)ccc12")
"< 4.52"
>>> experimental_value("Cn1c(=O)c(C(=O)O)cc2ccc(OCc3ccccc3)cc21")
"< 4.52"
>>> experimental_value("CCn1c(=O)c(C(=O)O)cc2ccc(OCc3ccccc3)cc21")
"< 4.52"
>>> experimental_value("O=C(O)c1cc2ccc(OCc3ccccc3)cc2[nH]c1=O")
"< 4.52"

Would you kindly look at the next entry?
Summary: COc1ccc2c(C)c(C(=O)O)c(=O)oc2c1 , Monocarboxylate transporter 4 (Homo sapiens), pIC50 = < 4.52
